Target: GCS (Canis lupus familiaris)
Construct: endogenous in cells; host or cells: MDCK (Madin-Darby canine kidney) cells, whole-cell lysate
Sequence (A0A8I3MXG6 1-394): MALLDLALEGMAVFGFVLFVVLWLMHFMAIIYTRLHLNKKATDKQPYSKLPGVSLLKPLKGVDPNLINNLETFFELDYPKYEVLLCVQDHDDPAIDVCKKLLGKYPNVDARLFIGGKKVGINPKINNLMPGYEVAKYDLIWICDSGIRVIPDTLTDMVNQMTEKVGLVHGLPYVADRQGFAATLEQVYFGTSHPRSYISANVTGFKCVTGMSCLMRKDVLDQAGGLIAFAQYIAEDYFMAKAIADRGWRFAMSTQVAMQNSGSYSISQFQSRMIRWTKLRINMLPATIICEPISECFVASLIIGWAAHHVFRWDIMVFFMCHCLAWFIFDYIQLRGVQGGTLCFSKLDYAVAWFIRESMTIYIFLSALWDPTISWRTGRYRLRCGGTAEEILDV
Assay: GCS enzymatic assay (MDCK cell lysate, NBD-ceramide to glucosylceramide, LC/MS); further: test concentration or dose not given here
Type: biochemical, canine
Settings: Table 2; class symbols D, E, F, NA (not active); the table does not say which of the assays

{"SMILES_ENTRY": "O=C(N[C@H](CN1CCCC1)[C@H](O)c1ccc2c(c1)OCCO2)[C@@H]1CCN(c2ccc3cccnc3c2)C1", "Data Range (% inhibition)": "D (75-100%)"}
{"SMILES_ENTRY": "O=C(N[C@H](CN1CCCC1)[C@H](O)c1ccc(N2CCOCC2)c(Cl)c1)[C@@H]1CCN(c2ccc(Cl)cc2)C1", "Data Range (% inhibition)": "D (75-100%)"}
{"SMILES_ENTRY": "O=C(N[C@H](CN1CCC1)[C@H](O)c1ccc(OC2CC2)c(Cl)c1)[C@@H]1CCN(c2ccc3cc(F)ccc3c2)C1", "Data Range (% inhibition)": "D (75-100%)"}
